# target_entity: Tissue factor (Homo sapiens, UniProt P13726)
# Sequence (P13726 whole entry): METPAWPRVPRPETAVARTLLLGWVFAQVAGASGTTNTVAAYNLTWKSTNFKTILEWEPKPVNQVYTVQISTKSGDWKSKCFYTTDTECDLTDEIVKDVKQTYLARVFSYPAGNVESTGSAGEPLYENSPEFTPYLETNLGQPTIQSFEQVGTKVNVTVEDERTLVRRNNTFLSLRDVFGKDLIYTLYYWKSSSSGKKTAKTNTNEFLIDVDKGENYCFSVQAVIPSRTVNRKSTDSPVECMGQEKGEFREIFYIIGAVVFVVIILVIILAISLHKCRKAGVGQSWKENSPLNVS
# experimental_protocol: Inhibition of tissue factor procoagulant activity in LPS-stimulated human THP1 cells preincubated for 1 hr before LPS addition measured after 5 hrs
metric_name: pIC50
Scale: pIC50 equals -log10([C]), with [C] in mol/L.

Below, each entry is followed by its recorded pIC50 result.
In [3]: df
Out[3]:
                                   compound  recorded_value
0  COc1ccc2c(c1OC)CN1CCc3cc4c(cc3C1C2)OCO4 (stereo not given)            8.08
1  COc1ccc2c(c1O[C@@H]1O[C@H](CO)[C@@H](O)[C@H](O)[C@H]1O)CN1CCc3cc4c(cc3[C@H]1C2)OCO4            8.06
2  COc1ccc2c(c1O[C@@H]1O[C@H](CO)[C@@H](O)[C@H](O)[C@H]1O)CN1CCc3cc4c(cc3[C@@H]1C2)OCO4            7.41
3  COc1cc2c(cc1OC)C1Cc3ccc(OC)c(O)c3CN1CC2 (stereo not given)            6.73

Turning now to a further record.
Query: Supply reported pIC50 belonging to this compound: COc1ccc2c(c1O)CN1CCc3cc4c(cc3[C@H]1C2)OCO4 [R-(+)-Tetrahydroberberrubine]
Result: 8.17

###

# target_entity: Tissue factor (Homo sapiens)
# experimental_protocol: Inhibition of tissue factor procoagulant activity in LPS-stimulated human THP1 cells preincubated for 1 hr before LPS addition measured after 5 hrs
pIC50: −log10 of the molar value.
Threshold check on pIC50: at or above 7 gives Criterion met, strictly below gives Criterion not met.

Use these answered entries as a reference point.
                                   compound     classification
0  COc1ccc2c(c1OC(=O)c1ccccc1)CN1CCc3cc4c(cc3C1C2)OCO4 (stereo not given)  Criterion not met
1  CCCCCC(=O)Oc1c(OC)ccc2c1CN1CCc3cc4c(cc3C1C2)OCO4 (stereo not given)  Criterion not met

Next, consider the following compound.
Query: Please check the record COc1cc2c(cc1OC)C1Cc3ccc(OC)c(OC)c3CN1CC2 (stereo not given) and state if its pIC50 is at or above 7.
Result: Criterion met

###

# target_entity: UniProt P13726
# experimental_protocol: Inhibition of tissue factor procoagulant activity in LPS-stimulated human THP1 cells preincubated for 1 hr before LPS addition measured after 5 hrs
The label met is reserved for IC50 strictly under 200 nM; not met covers values equal to or above it.

>>> df
                                   compound  classification
0  COc1cc2c(cc1OC)[C@H]1Cc3ccc(OC)c(O[C@@H]4O[C@H](CO)[C@@H](O)[C@H](O)[C@H]4O)c3CN1CC2             met
1  CCC(=O)Oc1c(OC)ccc2c1CN1CCc3cc4c(cc3C1C2)OCO4 (centres undefined)             met
2  COc1ccc2c(c1O)CN1CCc3cc4c(cc3[C@@H]1C2)OCO4             met
3  COc1ccc2c(c1OC)CN1CCc3cc(O)c(O)cc3C1C2 (centres undefined)         not met
4  COc1ccc2c(c1OC(=O)/C=C/c1ccccc1)CN1CCc3cc4c(cc3C1C2)OCO4 (centres undefined)             met

Query: Please state whether IC50 is below 200 nM for COc1cc2c(cc1OC)[C@@H]1Cc3ccc(OC)c(OC)c3CN1CC2 [(-)-Tetrahydropalmatine]
Result: met

Query: Please state whether IC50 is below 200 nM for `COc1cc2c(cc1OC)[C@@H]1Cc3ccc(OC)c(O[C@@H]4O[C@H](CO)[C@@H](O)[C@H](O)[C@H]4O)c3CN1CC2`
Result: met

Query: Please state whether IC50 is below 200 nM for COc1ccc2c(c1OC(=O)c1ccccc1OC(C)=O)CN1CCc3cc4c(cc3C1C2)OCO4 (centres undefined)
Result: not met
